Each recorded value in this set is attributed to patent US9963464B2.

target: T1, human PTEFb (CDK9/Cyclin T1) (Homo sapiens, UniProt P50750); assay: Surface plasmon resonance PTEFb; type: binding; settings: SPR, 25° C.; below 5E-5 s^-1 not resolvable; read-out: Dissociation rate constant koff
T1 construct: purchased ProQinase, Freiburg, Germany
T1 sequence (P50750 whole entry): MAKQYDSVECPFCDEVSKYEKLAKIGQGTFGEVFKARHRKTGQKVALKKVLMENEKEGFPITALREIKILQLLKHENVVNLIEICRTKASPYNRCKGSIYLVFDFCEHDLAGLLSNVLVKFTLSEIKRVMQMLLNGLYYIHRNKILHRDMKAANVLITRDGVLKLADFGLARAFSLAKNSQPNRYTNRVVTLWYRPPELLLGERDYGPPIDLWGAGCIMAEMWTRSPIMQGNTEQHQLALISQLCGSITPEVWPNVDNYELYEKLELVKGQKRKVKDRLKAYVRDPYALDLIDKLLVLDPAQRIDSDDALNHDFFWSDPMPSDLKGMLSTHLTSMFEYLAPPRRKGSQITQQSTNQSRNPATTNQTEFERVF
T1 sequence (O60563 whole entry partner): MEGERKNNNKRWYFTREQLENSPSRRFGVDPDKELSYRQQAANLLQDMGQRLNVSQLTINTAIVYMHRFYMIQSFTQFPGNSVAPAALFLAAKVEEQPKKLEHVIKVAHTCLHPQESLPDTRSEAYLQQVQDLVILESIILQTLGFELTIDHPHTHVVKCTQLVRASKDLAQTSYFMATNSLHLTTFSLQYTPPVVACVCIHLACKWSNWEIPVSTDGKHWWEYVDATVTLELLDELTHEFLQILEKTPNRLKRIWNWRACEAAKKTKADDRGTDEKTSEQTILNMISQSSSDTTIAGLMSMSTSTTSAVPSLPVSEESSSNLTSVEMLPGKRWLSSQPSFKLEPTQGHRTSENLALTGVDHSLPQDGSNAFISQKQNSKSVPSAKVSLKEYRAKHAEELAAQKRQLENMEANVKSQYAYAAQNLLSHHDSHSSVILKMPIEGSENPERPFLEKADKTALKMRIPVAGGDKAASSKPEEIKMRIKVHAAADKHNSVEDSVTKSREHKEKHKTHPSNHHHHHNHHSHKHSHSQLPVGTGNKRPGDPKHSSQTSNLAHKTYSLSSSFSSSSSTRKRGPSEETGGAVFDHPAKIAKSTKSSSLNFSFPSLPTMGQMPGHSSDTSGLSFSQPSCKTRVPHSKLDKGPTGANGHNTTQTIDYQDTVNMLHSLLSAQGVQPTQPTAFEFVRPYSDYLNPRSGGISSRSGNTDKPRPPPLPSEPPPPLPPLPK
Each entry below carries its recorded koff.

Answered cases to consult:
compound	measurement
CS(=O)(=O)Cc1cc2nc(c1)OCCCOc1cc(F)ccc1-c1cc(ncc1F)N2	< 5e-05 s⁻¹
C[S+]([O-])Cc1cc2nc(c1)OCCOc1cc(F)ccc1-c1cc(ncc1F)N2 (racemic)	0.00245 s⁻¹
CS(=N)(=O)Cc1cc2nc(c1)OCCCOc1cc(F)ccc1-c1cc(ncc1F)N2 (single isomer, unassigned; enantiomer 1) [Example 6]	< 5e-05 s⁻¹
CS(=N)(=O)Cc1cc2cc(c1)OCCCOc1cc(F)ccc1-c1nc(ncc1F)N2 (racemic)	< 5e-05 s⁻¹
C[S+]([O-])Cc1cc2nc(c1)OCCCOc1cc(F)ccc1-c1cc(ncc1F)N2 (racemic)	< 5e-05 s⁻¹

Lab entry: T1, human PTEFb (CDK9/Cyclin T1) (Homo sapiens, UniProt P50750) assay, compound `CSCc1cc2nc(c1)OCCOc1cc(F)ccc1-c1cc(ncc1F)N2` , koff = 0.00024 s⁻¹

Lab entry: T1, human PTEFb (CDK9/Cyclin T1) (Homo sapiens, UniProt P50750) assay, compound `CSCc1cc2nc(c1)OCCCCOc1cc(F)ccc1-c1cc(ncc1F)N2` , koff = < 5e-05 s⁻¹

Lab entry: T1, human PTEFb (CDK9/Cyclin T1) (Homo sapiens, UniProt P50750) assay, compound CS(=N)(=O)Cc1cc2nc(c1)OCCCOc1cc(F)ccc1-c1cc(ncc1F)N2 (racemic) [Example 5] , koff = 9.3e-05 s⁻¹
